Listing of entries alongside the reported inhibition at 10 µM.
- measurement_target: human 5-HT6 receptor (Homo sapiens, UniProt P50406)
- Construct: expressed in transfected cells
- Sequence (P50406 whole entry): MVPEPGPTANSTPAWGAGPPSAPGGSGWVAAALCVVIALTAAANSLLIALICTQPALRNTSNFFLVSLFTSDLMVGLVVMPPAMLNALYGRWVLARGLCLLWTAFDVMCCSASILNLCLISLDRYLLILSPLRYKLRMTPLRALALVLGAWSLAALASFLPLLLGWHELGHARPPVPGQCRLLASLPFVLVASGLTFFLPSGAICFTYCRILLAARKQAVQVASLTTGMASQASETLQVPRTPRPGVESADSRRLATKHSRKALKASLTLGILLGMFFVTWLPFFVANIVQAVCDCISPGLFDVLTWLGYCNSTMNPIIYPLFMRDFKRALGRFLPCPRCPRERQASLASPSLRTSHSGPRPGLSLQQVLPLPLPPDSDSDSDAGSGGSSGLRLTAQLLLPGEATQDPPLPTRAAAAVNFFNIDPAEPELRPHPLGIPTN
- assay_details: GPCR radioligand binding assay, [3H]-LSD displacement, HEK293 membranes
- conditions: 5-HT6; average of exp_1 and exp_2; read-out: %inh 5-HT6 average
Give just the number in %; leave the unit off.

A selection of reference data follows.
[
  {
    "compound": "Cc1cc2ccccc2nc1N",
    "inhibition at 10 µM, %": 33
  },
  {
    "compound": "CC1CCc2sc(C(=O)O)cc2C1 (stereo not shown)",
    "inhibition at 10 µM, %": 45
  },
  {
    "compound": "NC(=O)N1CCC(C(=O)O)CC1",
    "inhibition at 10 µM, %": 47
  }
]

Please fill in: inhibition at 10 µM reported for "O=C(c1ccccc1F)N1CCNCC1" = 17

Please fill in: inhibition at 10 µM reported for CC(=O)c1sc(-c2ccc(O)cc2)nc1C [E1] = 65

Please fill in: inhibition at 10 µM reported for "O=C(O)C1CCN(c2ncccn2)CC1" = 29

Please fill in: inhibition at 10 µM reported for "O=C1NC(=O)/C(=C\c2cccs2)N1" = 32

Measured values drawn from paper PMC8159961 for this set.
